// provenance: ChEMBL document CHEMBL4732100

Assign Emax at 2 h, 10 µM to each entry below.
- system: ABCG2 (Homo sapiens, UniProt Q9UNQ0)
- Sequence (Q9UNQ0 whole entry): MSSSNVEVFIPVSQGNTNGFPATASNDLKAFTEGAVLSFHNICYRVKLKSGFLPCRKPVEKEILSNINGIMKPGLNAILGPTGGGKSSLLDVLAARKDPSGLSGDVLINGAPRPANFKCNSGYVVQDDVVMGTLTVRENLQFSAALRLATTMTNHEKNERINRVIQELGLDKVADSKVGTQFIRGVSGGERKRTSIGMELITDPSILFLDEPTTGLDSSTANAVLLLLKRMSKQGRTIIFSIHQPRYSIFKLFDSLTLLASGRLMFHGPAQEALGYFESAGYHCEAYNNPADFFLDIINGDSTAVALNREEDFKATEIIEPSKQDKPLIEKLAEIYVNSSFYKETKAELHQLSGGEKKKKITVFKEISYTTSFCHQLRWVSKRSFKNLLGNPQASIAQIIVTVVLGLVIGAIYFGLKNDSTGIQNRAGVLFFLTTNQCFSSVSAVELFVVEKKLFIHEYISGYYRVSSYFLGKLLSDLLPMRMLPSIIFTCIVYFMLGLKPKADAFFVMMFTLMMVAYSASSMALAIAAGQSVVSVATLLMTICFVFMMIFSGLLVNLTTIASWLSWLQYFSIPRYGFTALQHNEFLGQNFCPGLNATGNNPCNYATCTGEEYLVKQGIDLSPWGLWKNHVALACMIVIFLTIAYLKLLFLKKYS
- assayRemarks: Inhibition of human ABCG2 in human MCF7/Topo cells assessed as accumulation of substrate Hoechst […] stain at 10 uM measured after 2 hrs by fluorometric microplate reader assay relative to FTC
- Type: cell-based
- conditions: read-out: Imax
Give the value, in units of %, as a plain number.

Query: I would be grateful if you could share the reported Emax at 2 h, 10 µM for CCC(=O)c1ccc(-c2cn(CCN3CCOCC3)nn2)cc1NC(=O)c1cc(=O)c2ccccc2o1 .
Response: 95

Query: How about CCC(=O)c1ccc(-c2cn(-c3ccc(CCN4CCc5cc(OC)c(OC)cc5C4)cc3)nn2)cc1NC(=O)c1cccc(N)n1 ?
Response: 75

Query: Please do the same for Cc1ccc(-c2cn(CCO)nn2)c(NC(=O)c2cc(=O)c3ccccc3o2)c1 as well.
Response: 91

Query: // next record CCC(=O)c1ccc(-c2cn(-c3ccc(CCN4CCc5cc(OC)c(OC)cc5C4)cc3)nn2)cc1NC(=O)c1cc(=O)c2ccccc2o1
Response: 65

Query: And the next one, COC(=O)c1ccc(Br)cc1NC(=O)c1ccc2ccccc2n1 ?
Response: 86

Query: Follow-up entry: COc1cc2c(cc1OC)CN(CCc1ccc(-n3cc(-c4ccccc4)nn3)cc1)CC2
Response: 41

Query: Note, next up: COC(=O)c1ccc(Br)cc1NC(=O)c1cc(=O)c2ccccc2o1
Response: 91

Query: # repeat for CCC(=O)c1ccc(-c2cn(-c3ccc(CCN4CCc5cc(OC)c(OC)cc5C4)cc3)nn2)cc1NC(=O)c1cc2ccccc2o1
Response: 78

Query: CCC(=O)c1ccc(-c2cn(-c3ccc(CCN4CCc5cc(OC)c(OC)cc5C4)cc3)nn2)cc1NC(=O)c1cccc(Cl)n1 ?
Response: 95

Query: Cool, now CCC(=O)c1ccc(-c2cn(-c3ccc(CCN4CCc5cc(OC)c(OC)cc5C4)cc3)nn2)cc1NC(=O)c1cccc(OC)n1
Response: 92

Query: Do the same for CCC(=O)c1ccc(-c2cn(-c3ccc(CCN4CCc5cc(OC)c(OC)cc5C4)cc3)nn2)cc1NC(=O)c1cccc([N+](=O)[O-])n1 please
Response: 91

Query: Follow-up entry: CCC(=O)c1ccc(-c2cn(-c3ccc(CCN4CCc5cc(OC)c(OC)cc5C4)cc3)nn2)cc1NC(=O)c1cccc(O)n1
Response: 75

Query: Also Cc1ccc(-c2cn(CCN3CCOCC3)nn2)c(NC(=O)c2cc(=O)c3ccccc3o2)c1 , if possible.
Response: 108

Query: Next compound up: CCC(=O)c1ccc(-c2cn(CCN3CCCC3)nn2)cc1NC(=O)c1cc(=O)c2ccccc2o1
Response: 70

Query: // next record CCC(=O)c1ccc(-c2cn(-c3ccc(CCN4CCc5cc(OC)c(OC)cc5C4)cc3)nn2)cc1NC(=O)c1ccc2ccccc2c1
Response: 70
